Molecular target: 17β-HSD1 (Homo sapiens, UniProt P14061)
Construct: was measured in intact cell monolayers of T47D and MDA-MB-231 breast cancer cells respectively; endogenous in cells; host or cells: T-47D human breast cancer cells
Sequence (P14061 1-328): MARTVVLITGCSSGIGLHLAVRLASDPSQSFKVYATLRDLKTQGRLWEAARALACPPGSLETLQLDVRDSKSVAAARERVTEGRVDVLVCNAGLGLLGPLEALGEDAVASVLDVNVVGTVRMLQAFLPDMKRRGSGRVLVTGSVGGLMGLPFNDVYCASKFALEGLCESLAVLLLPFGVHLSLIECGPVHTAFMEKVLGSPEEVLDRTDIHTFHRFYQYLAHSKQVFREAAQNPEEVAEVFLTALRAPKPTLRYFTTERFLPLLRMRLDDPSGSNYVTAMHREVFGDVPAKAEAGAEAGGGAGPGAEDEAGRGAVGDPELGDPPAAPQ
Assay: 17β-HSD Type I activity in T-47D cells (E1→E2)
Assay type: cell-based
Settings: T47D, 10 μM; T-47D cells, E1→E2; read-out: % inhibition of 17β-HSD1 @ 10 μM
Measurement type: inhibition at 10 µM (%)
Record the value in %, omitting the unit from your answer.

Fill in reported inhibition at 10 µM for this entry: C[C@]12CCC3c4ccc(OS(N)(=O)=O)cc4CCC3C1C/C(=C\c1ccccc1)C2=O (some centres unmarked)
-1

Fill in reported inhibition at 10 µM for this entry: C[C@]12CCC3c4ccc(O)cc4CCC3C1C/C(=N/O)C2=O (some centres unmarked)
96

Fill in reported inhibition at 10 µM for this entry: CC(C)NC(=O)CC1CC2C3CCc4cc(O)ccc4C3CC[C@]2(C)[C@H]1O (some centres unmarked)
67

Fill in reported inhibition at 10 µM for this entry: C[C@]12CCC3c4ccc(O)cc4CCC3C1C/C(=C\c1cccnc1)[C@@H]2O (some centres unmarked)
52

Fill in reported inhibition at 10 µM for this entry: Cn1cccc1CNC(=O)C1CC2C3CCc4cc(O)ccc4C3CC[C@]2(C)[C@H]1O (some centres unmarked)
86

Fill in reported inhibition at 10 µM for this entry: CCO/C=C1/CC2C3CC(=O)c4cc(O)ccc4C3CC[C@]2(C)C1=O (some centres unmarked)
85

Fill in reported inhibition at 10 µM for this entry: C[C@]12CCC3c4ccc(O)cc4CCC3C1C/C(=C\c1ccccn1)[C@@H]2O (some centres unmarked)
55

Fill in reported inhibition at 10 µM for this entry: C[C@]12CCC3c4ccc(O)cc4CCC3C1CC(C(=O)NCc1ccncc1)[C@@H]2O (some centres unmarked)
87

* * *

Molecular target: 17β-HSD2 (Homo sapiens, UniProt P37059)
Construct: was measured in intact cell monolayers of T47D and MDA-MB-231 breast cancer cells respectively; endogenous in cells; host or cells: MDA-MB-231 human breast cancer cells
Assay: 17β-HSD Type II activity in MDA-MB-231 cells (E2→E1)
Type: cell-based
Settings: 10 μM; MDA-MB-231 cells, E2→E1; read-out: % inhibition of 17β-HSD2 @ 10 μM
Label F if inhibition at 10 µM falls below 10%; label T in every other case.

Say whether C[C@]12CCC3c4ccc(O)cc4CCC3C1Cc1cccnc12 (some centres unmarked) shows inhibition at 10 µM of 10% or more.
T

Say whether CCN(CC)C(=O)CC1CC2C3CCc4cc(O)ccc4C3CC[C@]2(C)[C@H]1O (some centres unmarked) shows inhibition at 10 µM of 10% or more.
T

Say whether COc1cc2c(cc1OS(N)(=O)=O)CCC1C2CC[C@]2(C)C(=O)C(C#N)CC12 (some centres unmarked) shows inhibition at 10 µM of 10% or more.
F

Say whether C[C@]12CCC3c4ccc(O)cc4CCC3C1C/C(=C\c1ccc(C#N)cc1)C2=O (some centres unmarked) shows inhibition at 10 µM of 10% or more.
T

Say whether C[C@]12CCC3c4ccc(O)cc4CCC3C1CC(C#N)C2=O (some centres unmarked) shows inhibition at 10 µM of 10% or more.
T

Say whether CC(C)/C=C1\CC2C3CCc4cc(O)ccc4C3CC[C@]2(C)C1=O (some centres unmarked) shows inhibition at 10 µM of 10% or more.
T

Say whether CCN(CC)C(=O)CC1CC2C3CCc4cc(O)ccc4C3CC[C@]2(C)C1=O (some centres unmarked) shows inhibition at 10 µM of 10% or more.
F

Say whether C[C@]12CCC3c4ccc(O)cc4CCC3C1C/C(=C\c1ccccn1)[C@@H]2O (some centres unmarked) shows inhibition at 10 µM of 10% or more.
T

Say whether COC(=O)C1CC2C3CCc4cc(O)ccc4C3CC[C@]2(C)[C@H]1O (some centres unmarked) shows inhibition at 10 µM of 10% or more.
F

Say whether C[C@]12CCC3c4ccc(O)cc4CCC3C1Cc1c2n[nH]c1C(F)(F)F (some centres unmarked) shows inhibition at 10 µM of 10% or more.
T

Say whether Cc1cnc(CNC(=O)C2CC3C4CCc5cc(O)ccc5C4CC[C@]3(C)[C@H]2O)cn1 (some centres unmarked) shows inhibition at 10 µM of 10% or more.
F

Say whether C[C@]12CCC3c4ccc(O)cc4C(=O)CC3C1CCC2=O (some centres unmarked) shows inhibition at 10 µM of 10% or more.
F

Say whether C[C@]12CCC3c4ccc(O)cc4CCC3C1Cc1c2n[nH]c1CO (some centres unmarked) shows inhibition at 10 µM of 10% or more.
F

Say whether C[C@]12CCC3c4ccc(OS(N)(=O)=O)cc4CCC3C1C/C(=N/O)C2=O (some centres unmarked) shows inhibition at 10 µM of 10% or more.
F

Say whether CCc1cc2c(cc1OS(N)(=O)=O)CCC1C2CC[C@]2(C)C(=O)C(CC(=O)NCc3cccnc3)CC12 (some centres unmarked) shows inhibition at 10 µM of 10% or more.
F

Say whether COc1cc(/C=C2\CC3C4CCc5cc(OS(N)(=O)=O)ccc5C4CC[C@]3(C)C2=O)cc(OC)c1OC (some centres unmarked) shows inhibition at 10 µM of 10% or more.
T

Say whether C[C@]12CCC3c4ccc(O)cc4CCC3C1CC(C(=O)NCc1cccnc1)[C@@H]2O (some centres unmarked) shows inhibition at 10 µM of 10% or more.
F

* * *

Target: 17β-HSD1 (Homo sapiens, UniProt P14061)
Construct: was measured in intact cell monolayers of T47D and MDA-MB-231 breast cancer cells respectively; endogenous in cells; host or cells: T-47D human breast cancer cells
Experiment: 17β-HSD Type I activity in T-47D cells (E1→E2)
Type: cell-based
Conditions: T-47D cells, E1→E2; read-out: IC50 (17β-HSD1)
Param label: returns Condition met when IC50 < 1000 nM, returns Condition not met otherwise, including exact equality.

Is 1000 nM strictly greater than the compound's reported IC50? compound: C[C@]12CCC3c4ccc(O)cc4CCC3C1C/C(=N/O)C2=O (stereo partly shown)
Condition not met

Is 1000 nM strictly greater than the compound's reported IC50? compound: C[C@]12CCC3c4ccc(O)cc4C(=O)CC3C1CCC2=O (stereo partly shown)
Condition met

Is 1000 nM strictly greater than the compound's reported IC50? compound: Cn1cc2c(n1)[C@@]1(C)CCC3c4ccc(O)cc4CCC3C1C2 (stereo partly shown)
Condition not met

Is 1000 nM strictly greater than the compound's reported IC50? compound: COc1cc2c(cc1OS(N)(=O)=O)CCC1C2CC[C@]2(C)C(=O)C(C#N)CC12 (stereo partly shown)
Condition not met

Is 1000 nM strictly greater than the compound's reported IC50? compound: CCc1cc2c(cc1OS(N)(=O)=O)CCC1C2CC[C@]2(C)C(=O)C(CC(=O)NCc3cccnc3)CC12 (stereo partly shown)
Condition not met

Is 1000 nM strictly greater than the compound's reported IC50? compound: C[C@]12CCC3c4ccc(O)cc4/C(=N\O)CC3C1CC/C2=N\O (stereo partly shown)
Condition not met

Is 1000 nM strictly greater than the compound's reported IC50? compound: C[C@]12CCC3c4ccc(O)cc4CCC3C1Cc1c2n[nH]c1C(=O)NCc1ccccn1 (stereo partly shown)
Condition met

* * *

Biological target: 17β-HSD1 (Homo sapiens, UniProt P14061)
Construct: was measured in intact cell monolayers of T47D and MDA-MB-231 breast cancer cells respectively; endogenous in cells; host or cells: T-47D human breast cancer cells
Sequence (P14061 1-328): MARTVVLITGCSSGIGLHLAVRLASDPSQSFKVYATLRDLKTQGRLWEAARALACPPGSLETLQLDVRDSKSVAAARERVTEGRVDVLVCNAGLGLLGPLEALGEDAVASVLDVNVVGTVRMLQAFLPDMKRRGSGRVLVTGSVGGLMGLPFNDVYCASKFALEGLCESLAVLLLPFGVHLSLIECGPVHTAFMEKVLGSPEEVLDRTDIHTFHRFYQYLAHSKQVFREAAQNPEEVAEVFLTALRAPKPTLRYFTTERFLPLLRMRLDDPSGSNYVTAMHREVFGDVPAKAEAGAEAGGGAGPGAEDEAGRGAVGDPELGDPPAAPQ
Experiment: 17β-HSD Type I activity in T-47D cells (E1→E2)
Type: cell-based
Conditions: T47D, 10 μM; T-47D cells, E1→E2; read-out: % inhibition of 17β-HSD1 @ 10 μM
Record form. Attribute: inhibition at 10 µM. Fill in for each entry.
Record the value in %, omitting the unit from your answer.

Fill in reported inhibition at 10 µM for this entry: C[C@]12CCC3c4ccc(O)cc4CCC3C1C/C(=C\c1cccs1)C2=O (some centres unmarked)
67

Fill in reported inhibition at 10 µM for this entry: C[C@]12CCC3c4ccc(O)cc4CCC3C1CC(C#N)[C@@H]2O (some centres unmarked)
56

Fill in reported inhibition at 10 µM for this entry: COC(=O)C1CC2C3CCc4cc(O)ccc4C3CC[C@]2(C)[C@H]1O (some centres unmarked)
63

Fill in reported inhibition at 10 µM for this entry: CCN(C)C(=O)CC1CC2C3CCc4cc(O)ccc4C3CC[C@]2(C)[C@H]1O (some centres unmarked)
78

Fill in reported inhibition at 10 µM for this entry: CC(C)/C=C1\CC2C3CCc4cc(O)ccc4C3CC[C@]2(C)C1=O (some centres unmarked)
71
